System: SUDIPGIV (diffuse intrinsic pontine glioma line)
Assay: area under dose-response curve of % growth inhibition (log2 RLU vs DMSO / staurosporine), 1e-11 to 1e-4 M (% x log10 M); higher = more growth inhibition
Binary call on area under dose-response curve: rule met from 200 upward, rule not met beneath that.

[
  {
    "molecule": "CN(C)C/C=C/C(=O)Nc1cc2c(Nc3ccc(F)c(Cl)c3)ncnc2cc1O[C@H]1CCOC1 [AFATINIB]",
    "class": "rule not met"
  },
  {
    "molecule": "Cc1[nH]c2ccccc2c1CCNCc1ccc(/C=C/C(=O)NO)cc1 [PANOBINOSTAT]",
    "class": "rule met"
  },
  {
    "molecule": "CC(C)c1c2cc(-c3ccnc(NC4CCC(NC5CCOCC5)CC4)n3)ccc2nn1C (configuration not stated)",
    "class": "rule met"
  },
  {
    "molecule": "CCNC(=O)c1noc(-c2cc(C(C)C)c(O)cc2O)c1-c1ccc(CN2CCOCC2)cc1 [NVP-AUY922]",
    "class": "rule not met"
  },
  {
    "molecule": "O=C1NC(=O)C(c2cnc3ccccn23)=C1c1cn2c3c(cc(F)cc13)CN(C(=O)N1CCCCC1)CC2",
    "class": "rule met"
  },
  {
    "molecule": "Cc1ccc2nc(NCCN)c3ncc(C)n3c2c1",
    "class": "rule not met"
  },
  {
    "molecule": "CC1=C(/C=C/C(C)=C/C=C/C(C)=C/C(=O)O)C(C)(C)CCC1 [TRETINON]",
    "class": "rule not met"
  }
]
